target of assay: T1, monkey CD19 on HEK293T-monkey CD19 cells (monkey)
T1 construct: whole, on cells
procedure summary: FACS on HEK293T-monkey CD19 cells
Reported Maximum mean fluorescence intensity values for a set of binders

binder | Maximum mean fluorescence intensity
F4.152.7 (antibody, human IgG1, V domains shown, human-murine chimeric antibody, human IgG1) VH: QVQLQQPGAELVKPGASVKLSCKASGYTFTSYWMHWVKQRPGQGLEWIGEIDPSDSYTNYNQKFKGKATLTADKSSSTAYMQLSGLTSEDSAVYHCARGGDYDGYYVMDYWGQGTSVTVSS VL: EIVLTQSPTTMAASPGEKITITCSASSSISSNYLHWYQQKPGFSPKLLIYRTSNLASGVPARFSGSGSGTSYSLTIGTMEADDVATYYCQQGSYIPRIFTFGSGTKLEIK | 58
F5.7.1 (antibody, human IgG1, V domains shown, human-murine chimeric antibody, human IgG1) VH: QVTLKESGPGILQPSQTLSLTCSFSGFSLTTFGMGVGWIRQPSGKGLEWLTHIWWDDDKYYNPALKSRLTISKDTSKNQVFLRIANVDTADTATYYCARVITTGVPYFDYWGQGTTLTVSS VL: ENVLTQSPAIMSASPGEKVTMTCRASSSVSSSYLYWYQQKSGASPKLWISSTSNLASGVPARFSGSGSGTSYSLTINSVEAEDAATYYCQQYSGYPWTFGGGTKLEIK | 938
